- Test system: Toll-like receptor 4 (Mus musculus) (UniProt Q9QUK6)
- Sequence (whole entry): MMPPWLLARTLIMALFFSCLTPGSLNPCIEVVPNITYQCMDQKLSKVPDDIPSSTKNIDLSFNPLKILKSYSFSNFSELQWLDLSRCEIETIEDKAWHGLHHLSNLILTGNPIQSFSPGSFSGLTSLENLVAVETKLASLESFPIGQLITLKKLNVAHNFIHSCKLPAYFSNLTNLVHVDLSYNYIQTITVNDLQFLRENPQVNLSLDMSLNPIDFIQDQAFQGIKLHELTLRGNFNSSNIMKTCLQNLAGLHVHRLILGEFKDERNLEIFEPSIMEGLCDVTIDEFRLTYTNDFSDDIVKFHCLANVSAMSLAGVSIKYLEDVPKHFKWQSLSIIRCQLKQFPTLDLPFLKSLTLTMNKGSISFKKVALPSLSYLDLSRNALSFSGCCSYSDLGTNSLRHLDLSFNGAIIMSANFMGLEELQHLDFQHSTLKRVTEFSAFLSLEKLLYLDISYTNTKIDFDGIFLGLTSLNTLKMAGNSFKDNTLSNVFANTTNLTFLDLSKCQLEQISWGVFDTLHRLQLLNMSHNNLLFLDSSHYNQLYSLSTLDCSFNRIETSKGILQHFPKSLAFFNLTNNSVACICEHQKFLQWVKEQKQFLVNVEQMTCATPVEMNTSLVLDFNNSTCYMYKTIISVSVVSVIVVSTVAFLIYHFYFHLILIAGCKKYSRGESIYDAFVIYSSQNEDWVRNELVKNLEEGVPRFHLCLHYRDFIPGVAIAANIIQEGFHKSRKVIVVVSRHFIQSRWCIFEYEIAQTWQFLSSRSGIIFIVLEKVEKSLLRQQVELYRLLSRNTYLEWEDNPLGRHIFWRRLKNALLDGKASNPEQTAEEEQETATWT
- Test method notes: Inhibition of TLR4 in BALB/c mouse BMDM assessed as downregulation of LPS-stimulated IL-12p40 level at 5 ug/ml preincubated for 18 hrs followed by LPS challenge measured after 24 hrs by ELISA relative to control
Active and inactive are the calls of the source. How the calls were made is not given here.
Labels: yes (active), no (inactive)

Compound: O=S(=O)(CCCN1CCOCC1)Cc1ccc(Br)cc1
Class assignment: no
//
Compound: C[N+]1(CCS(=O)(=O)Cc2ccc(Br)cc2)CCCC1
Class assignment: yes
//
Compound: CN(C)CCOP(=O)(O)Cc1ccc([N+](=O)[O-])cc1
Class assignment: no
//
Compound: Cc1ccc(CNS(=O)(=O)CCN2CCOCC2)cc1
Class assignment: no
//
Compound: COc1cccc(C(=O)NCCN2CCOCC2)c1
Class assignment: yes
//
Compound: CN(C)CCOP(=O)(O)Cc1ccc(Br)cc1
Class assignment: no
//
Compound: O=S(=O)(CCN1CCOCC1)Nc1ccccc1
Class assignment: no
//
Compound: CN(C)CCN(C)CCS(=O)(=O)c1ccccc1
Class assignment: no
//
Compound: CN(C)CCN(C)CCS(=O)(=O)Cc1cccc(F)c1
Class assignment: no
//
Compound: CN(C)CCNCCS(=O)(=O)c1ccccc1
Class assignment: no
//
Compound: CN(C)CCCNS(=O)(=O)Cc1ccc([N+](=O)[O-])cc1
Class assignment: no
//
Compound: CN(C)CCN(C)CCS(=O)(=O)Nc1ccc(F)cc1
Class assignment: yes
//
Compound: O=S(=O)(CCN1CCCC1)Cc1ccc(F)cc1
Class assignment: no
//
Compound: COc1cccc(C(=O)NCCN2CCCC2)c1
Class assignment: yes
//
Compound: O=S(=O)(CCN1CCOCC1)c1ccccc1
Class assignment: no
//
Compound: CN(C)CCS(=O)(=O)NCc1ccc(F)cc1
Class assignment: no
//
Compound: O=S(=O)(CCN1CCOCC1)Cc1ccc(F)cc1
Class assignment: no
//
Compound: Cc1ccc(CS(=O)(=O)CC[N+]2(C)CCCC2)cc1
Class assignment: yes
//
Compound: O=S(=O)(CCN1CCOCC1)Nc1ccc(F)cc1
Class assignment: yes
//
Compound: Cc1ccc(CS(=O)(=O)CCN(C)C)cc1
Class assignment: yes
//
Compound: CN(C)CCNS(=O)(=O)Cc1ccc([N+](=O)[O-])cc1
Class assignment: no
//
Compound: Cc1ccc(CS(=O)(=O)CC[N+](C)(C)C)cc1
Class assignment: yes
//
Compound: O=S(=O)(CCN1CCCC1)c1ccccc1
Class assignment: no
//
Compound: CN(C)CCNS(=O)(=O)Cc1ccccc1
Class assignment: no
//
Compound: CN(C)CCN(C)CCS(=O)(=O)Nc1ccccc1
Class assignment: yes
//
Compound: CN(C)CCS(=O)(=O)Nc1ccc(F)cc1
Class assignment: yes
//
Compound: C[N+](C)(C)CCOP(=O)(O)Cc1ccc(Br)cc1
Class assignment: yes
